# SYSTEM_NAME: GPR40 (Homo sapiens, UniProt O14842)
# Construct: expressed in transfected cells; host or cells: HEK293 cells stably expressing GPR40 (Hygromycin selection)
# Sequence (O14842 whole entry): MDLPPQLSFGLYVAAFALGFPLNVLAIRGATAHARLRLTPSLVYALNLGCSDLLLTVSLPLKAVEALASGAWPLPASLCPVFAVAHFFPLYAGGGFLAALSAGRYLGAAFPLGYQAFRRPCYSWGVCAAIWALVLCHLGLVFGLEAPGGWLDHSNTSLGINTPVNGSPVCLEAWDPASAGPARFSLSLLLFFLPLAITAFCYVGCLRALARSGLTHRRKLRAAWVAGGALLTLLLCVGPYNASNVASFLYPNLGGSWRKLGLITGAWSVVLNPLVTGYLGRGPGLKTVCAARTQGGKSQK
# METHOD_SUMMARY: IP1 accumulation assay in HEK293 cells stably expressing GPR40
# Assay type: cell-based
# STATED_CONDITIONS: IP1 accumulation, HEK293 cells stably expressing GPR40, 2 hours at 37° C., % effect relative to AMG-1638; table of Biological Example 1

MOLECULE	EC50 [nM]
COc1ccc(F)c(-c2ccc(COc3cccc([C@@H](CC(=O)O)C4CC4)c3)cc2CC(C)(C)Cn2cc(CCCCCCCCCCCCCCCCCC(=O)NCCN(CCC(=O)NCCN)CCC(=O)NCCN)nn2)c1	2.25
COc1ccc(F)c(-c2ccc(COc3cccc([C@@H](CC(=O)O)C4CC4)c3)cc2CC(C)(C)Cn2cc(CCCCC(=O)NCCC[N+](C)(CC(=O)[O-])CC(=O)O)nn2)c1 (stereo partly drawn)	358
COc1ccc(C(=O)N(CC(C)(C)CCn2cc(CCCCCCCCC(=O)NCCCN(CC(=O)O)CC(=O)O)nn2)c2cccc(C)n2)c(N2CCC(COc3cc([C@@H](CC(=O)O)C4CC4)ccn3)CC2)c1	1360
